- measured-on: Thyrotropin receptor (Homo sapiens) (UniProt P16473)
- Sequence (P16473 whole entry, looked up): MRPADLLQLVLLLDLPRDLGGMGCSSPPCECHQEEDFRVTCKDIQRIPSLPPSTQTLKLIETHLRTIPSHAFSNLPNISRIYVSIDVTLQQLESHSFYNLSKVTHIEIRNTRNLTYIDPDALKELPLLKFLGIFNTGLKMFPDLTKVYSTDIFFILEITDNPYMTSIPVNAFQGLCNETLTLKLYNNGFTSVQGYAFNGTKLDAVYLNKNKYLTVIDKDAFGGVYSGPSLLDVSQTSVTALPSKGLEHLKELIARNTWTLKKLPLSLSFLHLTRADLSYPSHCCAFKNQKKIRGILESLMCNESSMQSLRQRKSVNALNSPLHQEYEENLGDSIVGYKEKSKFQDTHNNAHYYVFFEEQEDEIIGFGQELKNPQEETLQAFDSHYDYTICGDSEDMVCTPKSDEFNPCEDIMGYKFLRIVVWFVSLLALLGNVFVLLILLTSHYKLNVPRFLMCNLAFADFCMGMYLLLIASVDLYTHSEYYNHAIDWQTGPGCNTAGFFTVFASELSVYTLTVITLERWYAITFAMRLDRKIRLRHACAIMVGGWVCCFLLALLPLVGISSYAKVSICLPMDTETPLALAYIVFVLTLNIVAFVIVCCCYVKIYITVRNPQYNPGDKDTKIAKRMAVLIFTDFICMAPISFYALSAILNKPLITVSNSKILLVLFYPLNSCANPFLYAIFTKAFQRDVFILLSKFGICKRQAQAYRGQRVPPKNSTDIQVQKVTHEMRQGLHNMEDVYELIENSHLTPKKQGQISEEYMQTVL
- test-protocol: qHTS for antagonists of the Thyroid Stimulation Hormone Receptor: Hit Validation in Primary Screen; note: nearly all actives have a fitted effect of over 80% in size; note: potency is the fitted concentration of half-maximal effect
- study-conditions: TSHR-expressing cells, cAMP antagonist mode; series mostly up to 58 µM
About 380 (29%) of roughly 1,300 compounds were called active. Another 37% or so got no clear call; they are omitted. The list shows a part of the results.
endpoint-label: Potency

In the examples that follow, each entry is paired with its recorded Potency.
Cc1nnc(Sc2cc(NCCCO)c([N+](=O)[O-])c3nonc23)s1; 33.8 µM (active)
Cc1ccccc1-n1sc2cc(F)ccc2c1=O; 19 µM (active)
Cc1nnc(SCC(=O)Nc2nonc2C)s1; inactive
C=CCNC(=O)c1ccc(NC(=O)C2=CSCCO2)cc1; inactive
COc1ccc(NC(=O)c2ccc3ccccc3n2)cc1S(=O)(=O)Nc1ccccc1Cl; inactive

Enquiry: Output Potency of CS(=O)c1ccc(-n2c(=O)n(Cc3ccccc3)c(=O)c3[nH]cnc32)cc1 (stereo unspecified)
Return: inactive

Enquiry: Output Potency of O=C(O)c1ccc(S(=O)(=O)/N=C2\C=C(Nc3ccccc3F)C(=O)c3ccccc32)cc1
Return: 37.9 µM (active)

Enquiry: Output Potency of CC(C)Oc1ccc(C(=O)NCCNC(=O)c2ccco2)cc1
Return: inactive

Enquiry: Output Potency of Cc1c(N=Nc2c(-c3ccc([N+](=O)[O-])cc3)[nH]n(C(N)=S)c2=O)cccc1[N+](=O)[O-]
Return: 3.79 µM (active)

Enquiry: Output Potency of CCc1ccc(/C=C/C(=O)c2cc(Br)ccc(=O)c2O)cc1
Return: 9.53 µM (active)

Enquiry: Output Potency of CC(C)Oc1ccc(C(=O)Nc2ccc(Cl)c(S(=O)(=O)Nc3ccc(Cl)cc3)c2)cc1
Return: 21.3 µM (active)

Enquiry: Output Potency of Cc1cccc(/C=C/C(=O)c2cc(Br)ccc(=O)c2O)c1
Return: 15.1 µM (active)

Enquiry: Output Potency of CN(C)/C=C(/C(=O)c1ccc(Cl)cc1)S(=O)(=O)c1ccc(Cl)cc1
Return: inactive

Enquiry: Output Potency of COC(=O)c1cc(-c2c[nH]c3ccccc23)n[nH]1
Return: inactive
